The origin of these recorded values is paper PMC8161055.

TESTED ON: α-glucosidase (Saccharomyces cerevisiae)
Construct: purchased Sigma-Aldrich, Munich, Germany
Sequence (P53341 whole entry): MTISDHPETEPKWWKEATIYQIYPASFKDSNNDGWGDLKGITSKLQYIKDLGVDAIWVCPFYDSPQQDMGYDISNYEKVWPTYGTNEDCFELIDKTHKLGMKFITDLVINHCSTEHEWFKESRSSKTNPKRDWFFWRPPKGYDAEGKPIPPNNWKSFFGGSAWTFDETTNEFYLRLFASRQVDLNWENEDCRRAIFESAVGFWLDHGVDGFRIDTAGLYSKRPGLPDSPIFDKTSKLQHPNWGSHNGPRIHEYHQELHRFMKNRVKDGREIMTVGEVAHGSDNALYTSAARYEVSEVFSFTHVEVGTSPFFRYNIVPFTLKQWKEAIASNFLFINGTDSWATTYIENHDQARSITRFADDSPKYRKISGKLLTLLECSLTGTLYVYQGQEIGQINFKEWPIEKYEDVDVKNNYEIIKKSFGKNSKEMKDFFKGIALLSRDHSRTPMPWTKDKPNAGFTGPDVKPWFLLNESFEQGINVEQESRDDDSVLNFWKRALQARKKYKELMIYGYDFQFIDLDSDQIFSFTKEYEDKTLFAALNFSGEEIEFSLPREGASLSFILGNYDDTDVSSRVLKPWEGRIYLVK
TEST NAME: biochemical
Format: biochemical
MEASURED QUANTITY: IC50 (µM)
Response body: numeric value in µM, unit text excluded.

Record summary for O=C(CN1C(C(=O)c2ccccc2)=C(O)c2ccccc2S1(=O)=O)Nc1ccc(Cl)cc1 [Compound 11c] : reported IC50 = 30.6

For reference, reported IC50 for O=C(CN1C(C(=O)c2ccccc2)=C(O)c2ccccc2S1(=O)=O)Nc1ccc([N+](=O)[O-])cc1 [Compound 11i] stands at 40.4

Noted for O=C(CN1C(C(=O)c2ccccc2)=C(O)c2ccccc2S1(=O)=O)Nc1cccc([N+](=O)[O-])c1 [Compound 11h] : its IC50 reads 47.1

Lab note: measured IC50 of Cc1cccc(NC(=O)CN2C(C(=O)c3ccc(Br)cc3)=C(O)c3ccccc3S2(=O)=O)c1 [Compound 12e] was 35.1

Looking up O=C(CN1C(C(=O)c2ccc(Br)cc2)=C(O)c2ccccc2S1(=O)=O)Nc1ccccc1[N+](=O)[O-] [Compound 12g] , I found its IC50 recorded as 24.2

Lookup result for Cc1ccccc1NC(=O)CN1C(C(=O)c2ccc(Br)cc2)=C(O)c2ccccc2S1(=O)=O [Compound 12d] ; measured IC50: 20.8

// IC50 lookup, molecule = O=C(CN1C(C(=O)c2ccccc2)=C(O)c2ccccc2S1(=O)=O)Nc1ccccc1[N+](=O)[O-] [Compound 11g] , result: 88.1

Briefly, IC50 measured for O=C(CN1C(C(=O)c2ccc(Br)cc2)=C(O)c2ccccc2S1(=O)=O)Nc1ccccc1Cl [Compound 12a] : 18.2
